// data source = patent US20220195070A1

target: T1, SG115 (human, UniProt P01857 1-328 = IgG part); assay: ELISA, OD405 against dose (ng/mL, log axis 1-100)
T1 construct: also called modified IgG heavy chain constant region SG115
T1 sequence (P01857 other isoform, or with tags, fused parts or gaps limits assumed): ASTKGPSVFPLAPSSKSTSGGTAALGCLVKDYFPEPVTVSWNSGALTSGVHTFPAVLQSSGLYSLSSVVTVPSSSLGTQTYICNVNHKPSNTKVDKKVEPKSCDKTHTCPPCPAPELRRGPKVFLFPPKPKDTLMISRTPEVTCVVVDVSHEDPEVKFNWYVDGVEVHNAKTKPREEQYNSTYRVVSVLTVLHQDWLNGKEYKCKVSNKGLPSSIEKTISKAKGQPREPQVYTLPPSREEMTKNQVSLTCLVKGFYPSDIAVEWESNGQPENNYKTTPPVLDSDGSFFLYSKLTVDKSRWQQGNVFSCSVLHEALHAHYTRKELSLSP
READOUT_TYPE: binding result

For record SKA0046 (antibody, V domains shown, Recombinant rabbit monoclonal from B-cell cloning, expressed in FreeStyle 293-F cells; the first screen used B-cell culture supernatant; also called Anti-SG115 Antibody; rabbit Anti Fc-Mutation Antibody) VH: QEQLVESGGGLVQPEGSLTLTCTASGFSLSSSNYMWWVRQAPGKGLEWIACIHASSSGDTYYANWAKGRFTISKTSSTTVTLQMTSLTAADTATYFCARGGYIYGDGGYNGVAGFSLWGPGTLVTVSS VL: DVVMTQTPASVSEPVGGTVTIKCQASETIGNALAWYQQKPGQRPKLLIYGASNLESGVPSRFKGSGSGTEFTLTISDVQCDDAATYYCQSIYYSSSADTFFFPFGGGTEVVVKG the listed binding result is binds

For record SKA0009 (antibody, V domains shown, Recombinant rabbit monoclonal from B-cell cloning, expressed in FreeStyle 293-F cells; the first screen used B-cell culture supernatant; also called Anti-SG115 Antibody; rabbit Anti Fc-Mutation Antibody) VH: QSVEESGGRLVTPGTSLTLTCTVSGIDLSSYGMGWVRQAPGMGLEYIGIIYAAGRTYYASWVKGRFIISKTSTTVDLEMTSLTTEDTATYFCARHGSWYAGMDLWGPGTLVTVSS VL: AIEMTQTPSPVSAAVGGTVSINCQASEDIENYFAWYQQKPGQPPKLLIYDASELASGVPSRFSGSGSGTDFTLTISGVQCDDAATYYCQHADYAASSENTFGGGTEVVVKG the listed binding result is binds

For record SKA0016 (antibody, V domains shown, Recombinant rabbit monoclonal from B-cell cloning, expressed in FreeStyle 293-F cells; the first screen used B-cell culture supernatant; also called Anti-SG115 Antibody; rabbit Anti Fc-Mutation Antibody) VH: QEQLVESGGGLVQPEGSLTLTCTASGFSFSSSDYMCWVRQAPGKGLEWIACIYIGSNGDTFYASWAKGRFTISKTSSTTVTLQMTSLTAADTATYFCARDSRRADDYGTRLDLWGQGTLVTVSS VL: DIVMTQTPSSVSAAVGGTVTIKCQASQNIYRNLAWYQQKPGQPPKLLIYQASKLESGVPSRFKGSGSGTEFTLTISDLDCDDAASYYCQSISYISSGDTFFWAFGGGTEVVVKG the listed binding result is binds
